# key: entry, value: EC50
Test system: HCV 2a
test protocol: HCV 2a replicon assay
Assay type: cell-based
study conditions: Hepatitis C virus; class symbol; cell marked (HCV genotype 2a replicon); read-out: Inhibition of HCV genotype 2a replicon
Experimental: Compounds of the invention can inhibit multiple genotypes of HCV selected but not limited to 1a, 1h, 2a, 3a, and 4a. The EC50s are measured in the corresponding replicon assays that are similar to HCV 1b replicon assay as described above. The biological activity against HCV 1b, 1a, or 2a is indicated as being *, **, ***, or ****, which corresponds to EC50 ranges of EC50>1000 nM, 100 nM<EC50≦1000 nM, 10 nM<EC50≦100 nM, or EC50≦10 nM, respectively. […]

Example compounds with recorded EC50:
INSERT INTO results (compound, test_target, readout_name, result) VALUES
  ('C=C1c2cc3c(C(=O)NC)c(-c4ccc(F)cc4)oc3cc2N(S(C)(=O)=O)CCC1(C)C', 'HCV 2a', 'EC50', '10 to 100 nM'),
  ('CNC(=O)c1c(-c2ccc(F)cc2)oc2cc3c(cc12)C=C(C)CCN3S(C)(=O)=O', 'HCV 2a', 'EC50', '> 1000 nM');

Input: Could you tell me which EC50 is on file for `CNC(=O)c1c(-c2ccc(F)cc2)nn2cc3c(cc12)OCCCN3S(C)(=O)=O` ?
Output: > 1000 nM

Input: Could you tell me which EC50 is on file for CCC1CCCN(S(C)(=O)=O)c2cc3oc(-c4ccc(F)cc4)c(C(=O)NC)c3cc21 (stereo not shown) ?
Output: 10 to 100 nM

Input: Could you tell me which EC50 is on file for CNC(=O)c1c(-c2ccc(F)cc2)oc2cc3c(cc12)C(=O)C(C)CCN3S(C)(=O)=O (stereo not shown) ?
Output: 100 to 1000 nM

Input: Could you tell me which EC50 is on file for CNC(=O)c1c(-c2ccc(Oc3cccc(Cl)c3)cc2)nn2cc3c(cc12)C(C)CCCN3S(C)(=O)=O (stereo not shown) ?
Output: 100 to 1000 nM

Input: Could you tell me which EC50 is on file for `CNC(=O)c1c(-c2ccc(F)cc2)nn2cc3c(cc12)C(C)=CCCN3S(C)(=O)=O` ?
Output: > 1000 nM

Input: Could you tell me which EC50 is on file for CNC(=O)c1c(-c2ccc(F)cc2)oc2cc3c(cc12)C(O)C(C)CCN3S(C)(=O)=O (stereo not shown) ?
Output: 100 to 1000 nM

Input: Could you tell me which EC50 is on file for CNC(=O)c1c(-c2ccc(F)cc2)oc2cc3c(cc12)C(C)CCN3S(C)(=O)=O (stereo not shown) ?
Output: 100 to 1000 nM

Input: Could you tell me which EC50 is on file for CNC(=O)c1c(-c2ccc(F)cc2)oc2cc3c(cc12)C(OC)CCCN3S(C)(=O)=O (stereo not shown) ?
Output: 10 to 100 nM

Input: Could you tell me which EC50 is on file for CNC(=O)c1c(-c2ccc(Oc3ccc(F)cc3)cc2)nn2cc3c(cc12)C(C)CCCN3S(C)(=O)=O (stereo not shown) ?
Output: 100 to 1000 nM

Input: Could you tell me which EC50 is on file for `CNC(=O)c1c(-c2ccc(F)cc2)oc2cc3c(cc12)C(C)=CCN3S(C)(=O)=O` ?
Output: > 1000 nM

Input: Could you tell me which EC50 is on file for CNC(=O)c1c(-c2ccc(F)cc2)nn2cc3c(cc12)C(O)CCCN3S(C)(=O)=O (stereo not shown) ?
Output: > 1000 nM

Input: Could you tell me which EC50 is on file for `CS(=O)(=O)N1CCCCc2cc3c(C(=O)NC#N)c(-c4ccc(F)cc4)oc3cc21` ?
Output: > 1000 nM

Input: Could you tell me which EC50 is on file for `CNC(=O)c1c(-c2ccc(F)cc2)oc2cc3c(cc12)C(=O)C(C)(C)CCN3S(C)(=O)=O` ?
Output: 10 to 100 nM

Input: Could you tell me which EC50 is on file for `C=C1CCCN(S(C)(=O)=O)c2cc3oc(-c4ccc(F)cc4)c(C(=O)NC)c3cc21` ?
Output: > 1000 nM

* * *

# key: entry, value: pEC50
test target: HCV NS5B C316Y mutant (Hepatitis C virus genotype 1b, UniProt Q9WMX2, C2735Y)
Construct: HCV NS5B C316Y or S365A mutant as indicated
Sequence (Q9WMX2 2420-3010 C2735Y): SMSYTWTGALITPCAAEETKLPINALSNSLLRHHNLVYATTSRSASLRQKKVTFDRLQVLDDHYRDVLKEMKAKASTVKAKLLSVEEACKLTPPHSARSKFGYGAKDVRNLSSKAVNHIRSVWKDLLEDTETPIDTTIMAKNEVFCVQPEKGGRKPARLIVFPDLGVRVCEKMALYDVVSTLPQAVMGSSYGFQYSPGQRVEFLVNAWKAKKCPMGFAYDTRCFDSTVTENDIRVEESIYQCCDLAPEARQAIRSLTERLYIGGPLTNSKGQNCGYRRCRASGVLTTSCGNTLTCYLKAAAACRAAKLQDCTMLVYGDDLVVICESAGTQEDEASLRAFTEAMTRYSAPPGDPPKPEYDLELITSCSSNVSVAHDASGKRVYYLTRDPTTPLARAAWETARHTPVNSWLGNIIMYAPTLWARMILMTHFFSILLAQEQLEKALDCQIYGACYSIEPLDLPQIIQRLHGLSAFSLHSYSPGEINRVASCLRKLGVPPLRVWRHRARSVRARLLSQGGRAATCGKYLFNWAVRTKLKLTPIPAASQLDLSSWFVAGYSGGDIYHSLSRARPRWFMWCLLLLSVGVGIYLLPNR
test protocol: Activity against HCV NS5B C316Y mutant
pEC50: −log10 of the molar value.

Example molecules with recorded pEC50:
INSERT INTO measurements (molecule, readout_name, result) VALUES
  ('CNC(=O)c1c(-c2ccc(F)cc2)oc2cc3c(cc12)[C@H](C)OC1(CC1)CN3S(C)(=O)=O (single isomer, unassigned)', 'pEC50', '6.00 to 6.70'),
  ('CNC(=O)c1c(-c2ccc(Oc3ccc(F)cc3)cc2)oc2cc3c(cc12)[C@H](C)OC(C)(C)CN3S(C)(=O)=O (single isomer, unassigned)', 'pEC50', '6.00 to 6.70'),
  ('CNC(=O)c1c(-c2ccc(Oc3ccc(F)cc3)cc2)oc2cc3c(cc12)[C@H](C)OC1(CC1)CN3S(C)(=O)=O (single isomer, unassigned)', 'pEC50', '< 6.00');

Kindly consider the entry below.
Input: Could you tell me which pEC50 is on file for CNC(=O)c1c(-c2ccc(F)cc2)oc2cc3c(cc12)[C@H](C)OC(C)(C)CN3S(C)(=O)=O (single isomer, unassigned) ?
Output: < 6.00

* * *

test target: HCV NS5B S365A mutant (Hepatitis C virus genotype 1b, UniProt Q9WMX2, S2784A)
Construct: HCV NS5B C316Y or S365A mutant as indicated
Sequence (Q9WMX2 2420-3010 S2784A): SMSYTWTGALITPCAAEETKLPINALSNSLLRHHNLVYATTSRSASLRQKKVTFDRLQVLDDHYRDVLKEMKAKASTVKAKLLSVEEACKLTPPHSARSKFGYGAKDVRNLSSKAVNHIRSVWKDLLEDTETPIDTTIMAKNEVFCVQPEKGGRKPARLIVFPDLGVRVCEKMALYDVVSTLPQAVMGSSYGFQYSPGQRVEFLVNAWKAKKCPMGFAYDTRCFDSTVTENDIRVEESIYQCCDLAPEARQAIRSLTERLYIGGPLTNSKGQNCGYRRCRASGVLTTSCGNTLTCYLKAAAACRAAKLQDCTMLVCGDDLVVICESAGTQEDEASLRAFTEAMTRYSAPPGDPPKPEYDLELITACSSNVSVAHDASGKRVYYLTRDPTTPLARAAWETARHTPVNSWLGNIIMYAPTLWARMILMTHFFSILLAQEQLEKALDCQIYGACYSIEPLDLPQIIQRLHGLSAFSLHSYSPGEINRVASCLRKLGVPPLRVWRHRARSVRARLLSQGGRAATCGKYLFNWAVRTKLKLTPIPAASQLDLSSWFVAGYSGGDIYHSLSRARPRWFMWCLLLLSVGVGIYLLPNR
test protocol: Activity against HCV NS5B S365A mutant
pEC50: −log10 of the molar value.
readout name: pEC50

Example molecules with recorded pEC50:
INSERT INTO assay_data (molecule, test_target, readout_name, result) VALUES
  ('CS(=O)(=O)N1CCCCc2cc3c(-c4ncc[nH]4)c(-c4ccc(F)cc4)oc3cc21 [Compound B67]', 'HCV NS5B S365A mutant (Hepatitis C virus genotype 1b, UniProt Q9WMX2, S2784A)', 'pEC50', '6.00 to 6.70'),
  ('CNC(=O)c1c(-c2ccc(F)cc2)oc2cc3c(cc12)[C@H](C)OC1(CC1)CN3S(C)(=O)=O (single isomer, unassigned) [Compound B193]', 'HCV NS5B S365A mutant (Hepatitis C virus genotype 1b, UniProt Q9WMX2, S2784A)', 'pEC50', '6.00 to 6.70');

Kindly consider the entry below.
Input: Any idea what pEC50 came out for CC1OCCN(S(C)(=O)=O)c2cc3oc(-c4ccc(F)cc4)c(-c4ncc[nH]4)c3cc21 (stereo not drawn) [Compound B197] on HCV NS5B S365A mutant (Hepatitis C virus genotype 1b, UniProt Q9WMX2, S2784A)?
Output: 6.00 to 6.70

* * *

Tested on: 1b_Huh-Luc/Neo-ET cell line (bicistronic genotype 1b replicon in Huh 7 cells)
test protocol: HCV 1b replicon assay, luciferase readout
Format: cell-based, HCV genotype 1b
study conditions: Hepatitis C virus, Huh-7, class symbol; HCV genotype 1b replicon; read-out: Inhibition of HCV genotype 1b replicon
pEC50: −log10 of the molar value.
# key: entry, value: pEC50

INSERT INTO results (compound, test_target, result) VALUES
  ('CNC(=O)c1c(-c2ccc(F)cc2)oc2cc3c(cc12)C(C)n1nncc1CN3S(C)(=O)=O (centres unmarked)', '1b_Huh-Luc/Neo-ET cell line (bicistronic genotype 1b replicon in Huh 7 cells)', '> 8.00'),
  ('CNC(=O)c1c(-c2ccc(F)cc2)oc2cc3c(cc12)C1(CCN3S(C)(=O)=O)CC1', '1b_Huh-Luc/Neo-ET cell line (bicistronic genotype 1b replicon in Huh 7 cells)', '7.00 to 8.00'),
  ('CNC(=O)c1c(-c2ccc(F)cc2)nn2cc3c(cc12)C(C)OC(CO)CN3S(C)(=O)=O (centres unmarked)', '1b_Huh-Luc/Neo-ET cell line (bicistronic genotype 1b replicon in Huh 7 cells)', '6.00 to 7.00');

Input: Could you tell me which pEC50 is on file for CNC(=O)c1c(-c2ccc(Oc3ccc(F)cc3)cc2)oc2cc3c(cc12)[C@H](C)OC1(CC1)CN3S(C)(=O)=O (single isomer, unassigned) ?
Output: > 8.00

Input: Could you tell me which pEC50 is on file for `CS(=O)(=O)N1CCCCc2cc3c(C#N)c(-c4ccc(F)cc4)oc3cc21` ?
Output: < 6.00

Input: Could you tell me which pEC50 is on file for CNC(=O)c1c(-c2ccc(F)cc2)oc2cc3c(cc12)C(C)CCCCN3S(C)(=O)=O (centres unmarked) ?
Output: > 8.00

Input: Could you tell me which pEC50 is on file for `CNC(=O)c1c(-c2ccc(Oc3ccc(F)cc3)cc2)oc2cc3c(cc12)[C@H](C)O[C@H](CO)CN3S(C)(=O)=O` ?
Output: > 8.00

Input: Could you tell me which pEC50 is on file for `CN(O)C(=O)c1c(-c2ccc(F)cc2)oc2cc3c(cc12)CCCCN3S(C)(=O)=O` ?
Output: 6.00 to 7.00
